target: Ubiquitin-conjugating enzyme E2 N (Homo sapiens); type: functional;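 note: Dose-response confirmation in a TR-FRET assay detecting UBC13-driven polyubiquitin chain formation, inhibition measured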
Sequence (P61088 whole entry): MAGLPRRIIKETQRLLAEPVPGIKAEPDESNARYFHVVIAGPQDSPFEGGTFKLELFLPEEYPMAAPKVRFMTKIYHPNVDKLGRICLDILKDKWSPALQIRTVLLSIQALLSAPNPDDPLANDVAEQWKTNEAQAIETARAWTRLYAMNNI
Activity calls are given as the source filed them.
Lab note: assign the record to one of active, inactive

CN(C)CCOc1ccc(-c2c(-c3ccccc3)sc3ccccc23)cc1    inactive
c1ccc2c(C[C@@H]3CNCCN3CC3CCCCC3)cccc2c1    inactive
COc1cc2sc(-c3ccc(S(C)(=O)=O)cc3)c(C(=O)NCCCCO)c2cc1OC    inactive
CCOC(=O)c1cc(-c2ccc(OC)cc2)nc2c1c(C)nn2CCC#N    active
N=C(N)N/N=C/c1ccc2cccc(OCc3ccccc3)c2n1    inactive

From here, focus on the item given below.
Asked: Given `CCCCCCCCCCCCCCCC[n+]1ccc(C(N)=O)cc1` , state the outcome it received in this test.
Given back: inactive

These measurements were taken from ChEMBL document CHEMBL1201862.
